We begin with a simple list: items and their reported inhibition at 10 µM.
System: NAD(P) synthesis from niacinamide in HepG2 cells
PROTOCOL_SUMMARY: Determination of NAD(P) synthesis from [14C]niacinamide in HepG2 cells
Type: cell-based, human
SETTINGS: Homo sapiens, 10 μM, read-out: Cellular NAD synthesis inhibition [%]

{"STRUCTURE_SMILES_STRING": "S=C(NCCCCC=C(c1ccccc1)c1ccccc1)N/N=C/c1cccnc1", "inhibition at 10 µM": "99%"}
{"STRUCTURE_SMILES_STRING": "Cn1c(CCNC(=O)/C=C/c2cccnc2)ccc1CN1CCN(C(c2ccccc2)c2ccccc2)CC1", "inhibition at 10 µM": "99%"}
{"STRUCTURE_SMILES_STRING": "O=C(NCCCCCCNC(=O)N1CCN(C(c2ccccc2)c2ccccc2)CC1)NCc1cccnc1", "inhibition at 10 µM": "99%"}

The values you see were collected from patent US20020160968A1.
